TARGET UNDER TEST: COX-2 (Homo sapiens)
Sequence (P35354 18-604): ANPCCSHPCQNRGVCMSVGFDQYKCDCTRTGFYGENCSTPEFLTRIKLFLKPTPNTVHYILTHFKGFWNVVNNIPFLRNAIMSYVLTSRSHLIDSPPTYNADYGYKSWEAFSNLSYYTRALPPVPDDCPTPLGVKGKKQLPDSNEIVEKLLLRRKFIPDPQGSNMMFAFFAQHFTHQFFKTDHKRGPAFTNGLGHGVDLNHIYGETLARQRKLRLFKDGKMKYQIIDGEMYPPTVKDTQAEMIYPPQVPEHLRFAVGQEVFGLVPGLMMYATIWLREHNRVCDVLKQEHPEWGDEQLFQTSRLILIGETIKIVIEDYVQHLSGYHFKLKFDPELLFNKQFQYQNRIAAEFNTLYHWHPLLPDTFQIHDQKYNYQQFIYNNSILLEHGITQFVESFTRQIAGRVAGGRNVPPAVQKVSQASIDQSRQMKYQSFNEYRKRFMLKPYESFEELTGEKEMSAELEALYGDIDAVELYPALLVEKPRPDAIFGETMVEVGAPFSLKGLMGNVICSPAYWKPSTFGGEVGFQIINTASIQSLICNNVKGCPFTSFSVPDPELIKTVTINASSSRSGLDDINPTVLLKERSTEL
ASSAY OVERVIEW: Whole cell assay for COX-2 using CHO transfected cell line (CHO [hCOX-2])
Assay type: cell-based
Design: expressed in transfected cells; host or cells: Chinese hamster ovary (CHO) cells, stably transfected, CHO[hCOX-2]
SETUP CONDITIONS: CHO[hCOX-2] cells, 10 μM AA; read-out: CHO Cox-2 (IC50, inhibition of PGE2 production)
Description: Whole cell assays for COX-2 and COX-1 using CHO transfected cell lines Chinese hamster ovary (CHO) cell lines which have been stably transfected with an eukaryotic expression vector pCDNAIII containing either the human COX-1 or COX-2 cDNA's are used for the assay. […] Cyclooxygenase activity in the absence of test compounds is determined as the difference in PGE2 levels of cells challenged with arachidonic acid versus the PGE2 levels in cells mock-challenged with ethanol vehicle. […]
pIC50: −log10 of the molar value.
Give t when the value for pIC50 is at least 7. Give f when it is less.

# MOLECULE, TARGET UNDER TEST, GROUP LABEL
data = [
    ("CC1(C)OC(=O)C(c2ccc(F)cc2)=C1c1ccc(S(C)(=O)=O)cc1 [Compound T3-1, reference compound]", "COX-2 (Homo sapiens)", "t"),
    ("CCCC1(C)OC(=O)C(c2ccc(F)cc2)=C1c1ccc(S(C)(=O)=O)cc1 (centres unmarked) [n]", "COX-2 (Homo sapiens)", "f"),
    ("CCC1(CC)OC(=O)C(c2ccccc2)=C1c1ccc(S(C)(=O)=O)cc1 [t, reference compound]", "COX-2 (Homo sapiens)", "f"),
    ("CC[C@]1(C)OC(=O)C(c2ccc(F)cc2)=C1c1ccc(S(C)(=O)=O)cc1 [d]", "COX-2 (Homo sapiens)", "t"),
    ("CC[C@]1(C)OC(=O)C(c2ccc(F)c(F)c2)=C1c1ccc(S(C)(=O)=O)cc1 [i]", "COX-2 (Homo sapiens)", "t"),
    ("CCC1(CC)OC(=O)C(c2ccc(F)cc2)=C1c1ccc(S(C)(=O)=O)cc1 [u, reference compound]", "COX-2 (Homo sapiens)", "f"),
    ("CC[C@@]1(C)OC(=O)C(c2ccc(F)c(F)c2)=C1c1ccc(S(C)(=O)=O)cc1 [h]", "COX-2 (Homo sapiens)", "t"),
    ("CCCC1(C)OC(=O)C(c2cccc(F)c2)=C1c1ccc(S(C)(=O)=O)cc1 (centres unmarked) [o]", "COX-2 (Homo sapiens)", "f"),
]
